- TESTED_TARGET: GST-Rok-C97-191 (Bacillus subtilis subsp. subtilis str. …, UniProt O34857 97-191)
- Sequence: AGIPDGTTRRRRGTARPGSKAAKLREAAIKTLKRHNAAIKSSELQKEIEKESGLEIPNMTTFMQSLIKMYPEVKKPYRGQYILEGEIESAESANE
- TEST: protein binding microarray; high values mean tight binding
- RUN_CONDITIONS: protein: recombinant; tags: GST (pTH5325, pDEST15-Magic modified); dsDNA, one strand shown
Over roughly 33,000 sequences, “e-score” has its median near -0.038; the highest 2% begin near 0.33. The list comes from a sample in which the highest values are over-represented; it also holds close analogues and randomly drawn sequences.
MEASUREMENT_NAME: binding signal (E-score)
Numbers only; they are read as E-score.

Examples with answers:
ENTRY_SEQUENCE: CCGCCTAG
binding signal (E-score): -0.149
//
ENTRY_SEQUENCE: GCTAGGTA
binding signal (E-score): 0.145
//
ENTRY_SEQUENCE: TTGCCAAA
binding signal (E-score): 0.142
//
ENTRY_SEQUENCE: AGTTGAGA
binding signal (E-score): 0.111
//
ENTRY_SEQUENCE: GCGCAATA
binding signal (E-score): 0.0439
//
ENTRY_SEQUENCE: TGAAAGCA
binding signal (E-score): 0.0344

Task: Specify reported binding signal for the sequence shown: `AAAAGGGC`
Output: -0.186

Task: Specify reported binding signal for the sequence shown: `ATGCCCTA`
Output: -0.00598

Task: Specify reported binding signal for the sequence shown: `ATTAGGAA`
Output: -0.056

Task: Specify reported binding signal for the sequence shown: `ACAAGGAG`
Output: -0.167

Task: Specify reported binding signal for the sequence shown: `CGACATGC`
Output: -0.104

---

- TESTED_TARGET: GST-Rok-C97-191 (Bacillus subtilis subsp. subtilis str. …, UniProt O34857 97-191)
- Sequence: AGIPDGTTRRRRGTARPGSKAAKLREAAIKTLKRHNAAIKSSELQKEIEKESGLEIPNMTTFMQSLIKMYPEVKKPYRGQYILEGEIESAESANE
- TEST: protein binding microarray; Rok is a gene silencer of Bacillus subtilis; high values mean tight binding
- RUN_CONDITIONS: protein: recombinant; tags: GST (pTH5325, pDEST15-Magic modified); dsDNA, one strand shown
Whole data set: some 33,000 sequences, median “e-score” near -0.038, cut for the highest 2% near 0.33. What follows is part of a selection rich in the highest values, with near analogues and random picks from the rest.
Define the label as Met when binding signal is strictly less than 0.07 E-score and as Not met in all remaining cases.

ENTRY_SEQUENCE: CACTACTG
ASSIGNED_CLASS: Met

ENTRY_SEQUENCE: GAGAGTGC
ASSIGNED_CLASS: Met

ENTRY_SEQUENCE: CACTACGA
ASSIGNED_CLASS: Not met

Task: State whether 0.07 E-score exceeds binding signal recorded for `AGCTAATA` .
Output: Not met

Task: State whether 0.07 E-score exceeds binding signal recorded for `ACGCCTTA` .
Output: Not met

Task: State whether 0.07 E-score exceeds binding signal recorded for `CTGACAAG` .
Output: Met

Task: State whether 0.07 E-score exceeds binding signal recorded for `AAGTACTT` .
Output: Not met

Task: State whether 0.07 E-score exceeds binding signal recorded for `GTTGGCTA` .
Output: Met

Task: State whether 0.07 E-score exceeds binding signal recorded for `CGCTAATA` .
Output: Not met

Task: State whether 0.07 E-score exceeds binding signal recorded for `TCAAGGAA` .
Output: Met

Task: State whether 0.07 E-score exceeds binding signal recorded for `AGCCTTAT` .
Output: Met
